Molecular target: M1-family alanyl aminopeptidase (Plasmodium falciparum 3D7)
Test: malaria M1 alanyl aminopeptidase inhibitors – biochemical, QFRET, H-Leu-NHMec substrate, selectivity assay for PfM17LAP inhibitor project, dose response (AID 588698)
Settings: recombinant PfM1AAP, H-Leu-NHMec fluorogenic substrate cleavage; at 100 µM (top of the series)
Results filed as inconclusive are left out. The source made the active and inactive calls.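 Rule for the calls: active = inhibition of 30% or more at any tested concentration; inactive = the rest, inconclusive results apart.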
readout type: inhibition

1) Cc1cc(SCC(=O)Nc2ccccc2C(=O)O)nc2ccccc12; inactive
2) COC(=O)c1ccccc1NC(=O)c1ccc2c(Cl)c3c(nc2c1)CCC3; inactive
3) O=C(CSc1nccc(=O)[nH]1)Nc1ccc(N2CCOCC2)cc1; inactive

====

Molecular target: M1-family alanyl aminopeptidase (Plasmodium falciparum 3D7)
Assay: malaria M1 alanyl aminopeptidase inhibitors – biochemical, QFRET, H-Leu-NHMec substrate, selectivity assay for PfM17LAP inhibitor project, dose response (AID 588698)
Details: recombinant PfM1AAP, H-Leu-NHMec fluorogenic substrate cleavage
Inconclusive results are not listed.
readout type: pIC50
Numbers only, as −log10 of the molar value.

1. O=C(Cc1ccc2ccccc2c1)NO; 4.47

Kindly consider the entry below.
Return reported pIC50; argument: "O=C(Cc1cccc2ccccc12)NO"
4.10
